# maps each entry to its melting point

COMPOUND	melting point
CC(C)N(c1ccc(C(=O)O)cc1)c1nc(-c2nc3ccc(OCc4ccc(Cl)c(Cl)c4)cc3o2)cs1 [Example 183]	230 °C
CC(C)N(Cc1ccc(C(=O)O)cc1)c1nc(-c2ccc(OCc3ccc(C4CCCCC4)cc3)cc2)cs1 [Example 65]	233 to 234 °C
O=C(O)c1ccc(N(CCN2CCCCC2)c2nc(-c3ccc(OCc4ccc(Cl)c(Cl)c4)cc3)cs2)cc1 [Example 98]	230 °C (dec.)
CN(c1ccc(C(=O)O)cc1)c1nc(-c2cc(Cl)ccc2OCc2ccccc2)cs1 [Example 151]	211 to 212 °C

----------
# maps each entry to its melting point
MEASURED_METRIC: melting point

MOLECULE	RESULT_VALUE
O=C(O)c1ccc(CNc2nc(-c3cc(Cl)ccc3OCc3ccccc3)cs2)cc1	210 to 211 °C
O=C(O)c1ccc(N(CCC2CCCCC2)c2nc(-c3cc(Cl)ccc3OCc3ccccc3)cs2)cc1	160 to 163 °C
O=C(O)c1ccc(COc2cc(C(=O)O)ccc2Nc2nc(-c3ccc(OCc4ccc(C5CCCCC5)cc4)cc3)cs2)cc1	230 °C (dec.)
CC(C)N(c1ccc(OCC(=O)O)cc1)c1nc(-c2ccc(NC(=O)c3ccc(N4CCCCC4)nc3)cc2)cs1	237 to 240 °C
CC(C)N(c1ccc(C(=O)O)c(Cl)c1)c1nc(-c2ccc(NC(=O)c3ccc(N4CCCCC4)cc3)cc2)cs1.Cl	220 °C (dec.)
CC(C)N(c1ccc(C(=O)[O-])cc1)c1nc(-c2ccc(OCc3ccc(C4CCCCC4)cc3)cc2)cs1.[Na+]	230 °C (dec.)
CC(C)c1ccc(COc2ccc(Cl)cc2-c2csc(N(CCC3CCCCC3)c3ccc(C(=O)O)cc3)n2)cc1	190 to 192 °C
O=C(O)c1ccc(Nc2nc(-c3ccc(NC(=O)c4ccc(C5CCCCC5)cc4)cc3)cs2)cc1	250 °C (dec.)
CN(Cc1ccc(C(=O)[O-])cc1)c1nc(-c2ccc(OCc3ccc(C4CCCCC4)cc3)cc2)cs1.[Na+]	250 °C (dec.)
CN(CCC1Cc2ccccc2C1)c1ccc(-c2csc(N(C)Cc3ccc(C(=O)O)cc3)n2)cc1	174 to 176 °C
CN(Cc1ccc([C@H]2CC[C@@H](O)CC2)cc1)c1ccc(-c2csc(N(C)Cc3ccc(C(=O)O)cc3)n2)cc1	180 to 181 °C
CC(=O)OC(C)OC(=O)c1ccc(CN(C)c2nc(-c3ccc(OCc4ccc(C5CCCCC5)cc4)cc3)cs2)cc1 (stereo not drawn)	116 to 117 °C
CC(C)N(Cc1ccc(C(=O)O)cc1)c1nc(-c2ccc(NC(=O)c3ccc(N4CCOCC4)cc3)cc2)cs1	250 °C (dec.)
CC(C)N(Cc1cccc(C(=O)O)c1)c1nc(-c2ccc(OCc3ccc(C4CCCCC4)cc3)cc2)cs1	196 to 197 °C
O=C(O)c1ccc(N(CC2CCCCC2)c2nc(-c3nc4ccc(OCc5ccc(F)c(F)c5)cc4o3)cs2)cc1	228 to 230 °C

----------
# maps each entry to its melting point
Where a name gives a salt, the structure may show the parent alone.

MOLECULE	melting point
CN(Cc1ccc(C2CCCCC2)cc1)c1ccc(-c2csc(N(C)Cc3ccc(C(=O)O)cc3)n2)cc1.O=S(=O)(O)O	130 °C (dec.)
CN(c1ccc(C(=O)[O-])cc1)c1nc(-c2ccc(NCc3ccc(C4CCCCC4)cc3)cc2)cs1.[Na+] [Example 263]	260 °C
O=C(O)c1cc(Cc2nc(-c3cc(Cl)ccc3OCc3ccccc3)cs2)ccc1O [Example 158]	212 to 213 °C
O=C(O)c1ccc(CN(CC2CCCCC2)c2nc(-c3nc4ccc(OCc5ccccc5)cc4o3)cs2)cc1 [Example 220]	117 to 119 °C
CC(C)(c1ccc(C(=O)O)cc1)c1nc(-c2cc(Cl)ccc2OCc2ccccc2)cs1 [Example 149]	152 to 154 °C
Cc1ccc(OCc2ccccc2)c(-c2csc(N(CCC3CCCCC3)c3ccc(C(=O)O)cc3)n2)c1 [Example 175]	148 to 150 °C
CC(C)N(Cc1ccc(C(=O)O)cc1)c1nc(-c2cccc(NC(=O)c3ccc(C4CCCCC4)cc3)c2)cs1 [Example 146]	228 to 230 °C
CC(C)N(c1ccc(OCC(=O)O)cc1)c1nc(-c2ccc(NC(=O)c3ccc(N4CCOCC4)cc3)cc2)cs1 [Example 54]	250 °C (dec.)
O=C(O)c1ccc(N(CCC2CCCCC2)c2nc(-c3nc4cc(OCc5ccc(Cl)c(Cl)c5)ccc4[nH]3)cs2)cc1 (as salt: hydrochloride) [Example 185]	173 to 176 °C
CN(Cc1ccc(C(=O)O)cc1)c1nc(-c2ccc(CN3CCN(Cc4ccccc4)CC3)cc2)cs1 [Example 240]	130 to 135 °C
O=C(O)c1ccc(N(CC2CCCCC2)c2nc(-c3ccc(NCc4ccc(C(F)(F)F)cc4)cc3)cs2)cc1 [Example 134]	199 to 203 °C
CN(Cc1ccc(C2CCCCC2)cc1)c1ccc(-c2csc(N(C)c3ccc(C(=O)O)cc3)n2)cc1 [Example 132]	185 to 189 °C
O=C(O)c1ccc(N(CCOc2ccccc2)c2nc(-c3cc(Cl)ccc3OCc3ccccc3)cs2)cc1 [Example 153]	152 to 155 °C
O=C(O)c1ccc(CN(CC2CCCCC2)c2nc(-c3ccc(N(Cc4ccc(Cl)c(Cl)c4)Cc4ccc(Cl)c(Cl)c4)cc3)cs2)cc1 [Example 117]	120 °C (dec.)
CC1CC(C)CN(c2ccc(C(=O)Nc3ccc(-c4csc(N(c5ccc(C(=O)O)cc5)C(C)C)n4)cc3)cc2)C1.Cl (centres unmarked)	152 to 160 °C
O=C(O)c1ccc(CN(CCC2CCCCC2)c2nc(-c3cc(Cl)ccc3OCc3ccccc3)cs2)cc1 [Example 164]	158 to 160 °C
CN(Cc1ccc(C(=O)O)cc1)c1nc(-c2ccc(CN3CCN(C(=O)OCc4ccccc4)CC3)cc2)cs1 [Example 243]	122 to 127 °C
CCN(c1ccc(C(=O)O)cc1)c1nc(-c2ccc(OCc3ccc(C4CCCCC4)cc3)cc2)cs1 [Example 23]	239 to 247 °C
CC(C)N(c1ccc(C(=O)O)c(Cl)c1)c1nc(-c2ccc(NC(=O)c3ccc(C4CCCCC4)cc3)cc2)cs1 [Example 38]	220 °C (dec.)
CC(C)Cc1ccc(CNc2ccc(-c3csc(N(CC4CCCCC4)c4ccc(C(=O)O)cc4)n3)cc2)cc1 [Example 131]	167 to 169 °C
CN(Cc1ccc(C(F)(F)F)cc1)c1ccc(-c2csc(N(C)c3ccc(C(=O)O)cc3)n2)cc1 [Example 137]	218 to 220 °C
CN(Cc1ccc([C@H]2CC[C@H](O)CC2)cc1)c1ccc(-c2csc(N(C)Cc3ccc(C(=O)O)cc3)n2)cc1 [Example 196]	194 to 196 °C
CC(C)N(c1ccc(OCC(=O)O)cc1)c1nc(-c2ccc(NC(=O)C3CCCCC3)cc2)cs1 [Example 50]	225 °C (dec.)
COc1ccc(OCc2ccccc2)c(-c2csc(Nc3ccc(C(=O)O)cc3)n2)c1 [Example 154]	184 to 185 °C
O=C(O)c1ccc(N(CC2CCCCC2)c2nc(-c3ccc(OCc4ccc(C5CCCCC5)cc4)cc3)cs2)cc1 [Example 25]	230 °C (dec.)
CC(=O)N1CCC(c2ccc(CN(C)c3ccc(-c4csc(N(C)Cc5ccc(C(=O)O)cc5)n4)cc3)cc2)CC1 [Example 211]	208 to 210 °C
O=C(O)c1ccc(Nc2nc(-c3cc(Cl)ccc3OCc3ccccc3)cs2)c(OCCC2CCCCC2)c1 [Example 150]	230 °C (dec.)
O=C(O)c1ccc(Cc2nc(-c3ccc(OCc4ccc(C5CCCCC5)cc4)cc3)cs2)cc1 [Example 48]	235 to 238 °C
CC(C)c1ccc(COc2ccc(Cl)cc2-c2csc(Nc3ccc(C(=O)O)cc3)n2)cc1 [Example 173]	215 to 218 °C

----------
Target: recombinant human protein tyrosine phosphatase 1B (Homo sapiens, UniProt P18031)
Construct: purchased UBI
Sequence (P18031 whole entry): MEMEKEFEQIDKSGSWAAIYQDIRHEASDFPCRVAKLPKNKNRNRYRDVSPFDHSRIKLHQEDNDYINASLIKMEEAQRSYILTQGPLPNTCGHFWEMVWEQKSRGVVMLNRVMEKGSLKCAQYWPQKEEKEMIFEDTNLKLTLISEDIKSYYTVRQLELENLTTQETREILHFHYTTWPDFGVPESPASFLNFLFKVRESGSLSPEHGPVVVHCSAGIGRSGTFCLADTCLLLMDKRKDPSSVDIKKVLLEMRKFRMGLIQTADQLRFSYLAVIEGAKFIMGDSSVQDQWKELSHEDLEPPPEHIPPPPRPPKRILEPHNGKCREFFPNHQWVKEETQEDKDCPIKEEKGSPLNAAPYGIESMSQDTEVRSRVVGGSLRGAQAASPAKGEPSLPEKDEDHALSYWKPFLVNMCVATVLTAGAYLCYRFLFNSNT
Experiment: Protein tyrosine phosphatase 1B inhibitory action (malachite green, phosphorylated insulin receptor peptide substrate)
Assay type: biochemical
Conditions: recombinant human PTP1B, 60 min room temperature, absorbance at 650 nm
# maps each entry to its IC50
MEASURED_METRIC: IC50 (µM)

1) O=C(O)c1ccc(CN(CC2CCCCC2)c2nc(-c3nc4ccc(OCc5ccc(Cl)c(Cl)c5)cc4o3)cs2)cc1 0.26
2) CN(Cc1ccc(C2CCC(Cl)(Cl)CC2)cc1)c1ccc(-c2csc(N(C)Cc3ccc(C(=O)O)cc3)n2)cc1 0.11
3) CN(Cc1ccc(C2CCC(C)(C)CC2)cc1)c1ccc(-c2csc(N(C)Cc3ccc(C(=O)O)cc3)n2)cc1 0.11

----------
Counter-ions that a name gives are not always drawn.

MOLECULE	melting point
CN(Cc1ccc(C(C)(C)C)cc1)c1ccc(-c2csc(N(C)Cc3ccc(C(=O)O)cc3)n2)cc1 [Example 233]	166 to 167 °C
CC1CCC(c2ccc(CN(C)c3ccc(-c4csc(N(C)Cc5ccc(C(=O)O)cc5)n4)cc3)cc2)CC1 (centres unmarked) [Example 218]	185 to 191 °C
CC(C)N(c1ccc(C(=O)O)cc1)c1nc(-c2ccc(NC(=O)CCCC3CCCCC3)cc2)cs1 [Example 46]	230 °C (dec.)
O=C(O)c1ccc(Cc2nc(-c3ccc(NC(=O)c4ccc(-n5cccc5)cc4)cc3)cs2)cc1 [Example 70]	220 °C (dec.)
CN(Cc1ccc(C(F)(F)F)cc1)c1ccc(-c2csc(N(C)Cc3ccc(C(=O)O)cc3)n2)cc1 [Example 234]	180 to 181 °C
O=C(O)c1cccc(N(CCC2CCCCC2)c2nc(-c3cc(Cl)ccc3OCc3ccccc3)cs2)c1 [Example 172]	170 to 171 °C
CN(CCc1ccc(C(F)(F)F)cc1)c1ccc(-c2csc(N(C)Cc3ccc(C(=O)O)cc3)n2)cc1 [Example 236]	158 to 159 °C
COc1ccc(OCc2ccc(C(F)(F)F)cc2)c(-c2csc(N(CCC3CCCCC3)Cc3ccc(C(=O)O)cc3)n2)c1 [Example 166]	183 to 184 °C
CC(C)(c1ccc(C(=O)O)cc1)c1nc(-c2ccc(NC(=O)c3ccc(N4CCCCC4)cc3)cc2)cs1 [Example 45]	268 to 271 °C
CN(Cc1ccc(C(=O)O)cc1)c1nc(-c2ccc(OCc3ccc(C4CCCCC4)cc3)cc2)cs1.CS(=O)(=O)O	175 °C (dec.)
CN(Cc1ccc([C@H]2CCC[C@@H](O)C2)cc1)c1ccc(-c2csc(N(C)Cc3ccc(C(=O)O)cc3)n2)cc1 (relative stereo) [Example 205]	220 °C
COc1ccc(OCc2ccc(C(F)(F)F)cc2)c(-c2csc(N(CCC3CCCCC3)c3ccc(C(=O)O)cc3)n2)c1 [Example 170]	104 to 107 °C
CN(Cc1ccc(Cl)c(Cl)c1)c1ccc(-c2csc(N(Cc3ccc(C(=O)O)cc3)CC3CCCCC3)n2)cc1 [Example 118]	125 to 127 °C
CC(C)(c1ccc(C(=O)O)cc1)c1nc(-c2ccc(OCc3ccc(Cl)c(Cl)c3)cc2)cs1 [Example 90]	170 to 172 °C
CN(Cc1ccc(C2CCC(F)(F)CC2)cc1)c1ccc(-c2csc(N(C)Cc3ccc(C(=O)O)cc3)n2)cc1 [Example 209]	190 to 193 °C
CN(Cc1ccc(C2CCCCC2)cc1)c1ccc(-c2csc(N(C)Cc3cccc(C(=O)O)c3)n2)cc1 [Example 204]	183 °C (dec.)
CCN(c1ccc(C(=O)O)cc1)c1nc(-c2ccc(NC(=O)C3CCCCC3)cc2)cs1 [Example 11]	250 °C (dec.)
CCOC(=O)c1ccc(CN(C)c2nc(-c3ccc(OCc4ccc(C5CCCCC5)cc4)cc3)cs2)cc1 [Example 249]	117 to 118 °C
CC(C)(c1ccc(C(=O)O)cc1)c1nc(-c2ccc(NC(=O)c3ccc(N4CCOCC4)cc3)cc2)cs1 [Example 44]	290 °C (dec.)
CN(c1ccc(C(=O)O)cc1)c1nc(-c2ccc(NCc3ccc(C4CCCCC4)cc3)cc2)cs1 (as salt: hydrochloride) [Example 258]	234 to 236 °C
CC(C)N(c1ccc(C(=O)O)c(Cl)c1)c1nc(-c2ccc(NC(=O)c3ccc(N4CCN(C)CC4)cc3)cc2)cs1 [Example 41]	220 °C (dec.)
CC(C)N(c1ccc(-c2nnn[nH]2)cc1)c1nc(-c2ccc(OCc3ccc(C4CCCCC4)cc3)cc2)cs1 [Example 78]	215 to 216 °C
CC(C)N(Cc1cccc(-c2nnn[nH]2)c1)c1nc(-c2ccc(OCc3ccc(C4CCCCC4)cc3)cc2)cs1 [Example 80]	221 to 222 °C
CC(C)(C)c1ccc(COc2ccc(-c3csc(Cc4ccc(C(=O)O)cc4)n3)cc2)cc1 [Example 47]	223 to 228 °C
O=C(O)c1ccc(N(CCC2CCCCC2)c2nc(-c3cc(Cl)ccc3OCc3ccc(C(F)(F)F)cc3)cs2)cc1 [Example 177]	170 to 175 °C
COc1ccc(OCc2ccc(C(F)(F)F)cc2)c(-c2csc(Nc3ccc(C(=O)O)cc3)n2)c1 [Example 155]	218 to 219 °C
CC(C)N(c1ccc(C(=O)O)cc1)c1nc(-c2ccc(OCc3ccc(C4CCCCC4)cc3)cc2)cs1 [Example 24]	238 to 240 °C
CC(OC(=O)OC1CCCCC1)OC(=O)c1ccc(CN(C)c2nc(-c3ccc(OCc4ccc(C5CCCCC5)cc4)cc3)cs2)cc1 (centres unmarked) [Example 272]	75 to 79 °C
CN(C)CCN(c1ccc(C(=O)O)cc1)c1nc(-c2ccc(OCc3ccc(Cl)c(Cl)c3)cc2)cs1 [Example 97]	230 °C (dec.)
